Each recorded value in this set is attributed to paper PMC5361054.

Record form. Attribute: dissociation constant (kd). Fill in for each entry.
Tested on: H-2 L^d:Ig (DimerX) protein
Sequence (P01897 25-298 limits assumed): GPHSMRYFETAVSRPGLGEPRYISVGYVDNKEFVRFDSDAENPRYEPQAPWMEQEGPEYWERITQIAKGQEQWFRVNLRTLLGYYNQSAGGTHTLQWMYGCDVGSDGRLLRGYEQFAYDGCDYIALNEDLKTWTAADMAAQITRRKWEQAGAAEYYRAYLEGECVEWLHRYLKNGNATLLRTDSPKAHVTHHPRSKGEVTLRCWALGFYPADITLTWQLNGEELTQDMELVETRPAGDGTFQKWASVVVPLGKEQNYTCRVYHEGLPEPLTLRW
Sequence (P01887 21-119, further chain): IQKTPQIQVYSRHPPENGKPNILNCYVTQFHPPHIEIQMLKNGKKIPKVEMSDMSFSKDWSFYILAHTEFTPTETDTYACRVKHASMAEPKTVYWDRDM
Assay: SPR kinetics of synthetic peptide binding to immobilized DimerX
Parameters: species or system Mouse
Details: SPR, DimerX immobilized on carboxylated sensor chip by EDC/NHS, peptide in PBS, neutral pH, 25°C
Procedure: Surface Functionalization of Sensor Chip (Steps 1 and 2). […] Complex Formation of H-2 L ^d :Ig/Peptide (Step 3). […] The concentration of peptides for binding to the DimerX was determined according to the manufacturer's instructions:(1) Mp=MH·R·Dp/DH, where Mp is micrograms of the peptide, MH is micrograms of H-2 in the reaction, R is molar excess (160 mol) between the peptide and protein H-2, Dp is molecular weight of the peptide, and DH is molecular weight of DimerX (250,000 Da). […]
Numbers only, in S^−1.

Here's what some known entries look like.
BIOPOLYMER_SEQUENCE	MEASURED_VALUE
MVEQVICFD [P1.9, synthetic peptide … derived from the COOH-terminal region of cysteine proteinase B of L. (L.) amazonensis]	0.1157
CLGGGLCL [P6.4, synthetic peptide CLGGGLCL derived from the COOH-terminal region of cysteine proteinase B of L. (L.) amazonensis]	0.1089
VEQVICFD [P1.10, synthetic peptide VEQVICFD derived from the COOH-terminal region of cysteine proteinase B of L. (L.) amazonensis]	0.1230

Moving on to the next sequence.
Task: Which measured dissociation constant (kd) belongs to EFCLGGGLC [P6.5, synthetic peptide … derived from the COOH-terminal region of cysteine proteinase B of L. (L.) amazonensis] , tested on H-2 L^d:Ig (DimerX) protein?
Output: 0.0470

----------
Target: H-2 L^d:Ig (DimerX) protein
Assay: SPR kinetics of synthetic peptide binding to immobilized DimerX
Design: species or system Mouse
Settings: KD = kd/ka from SPR at 25°C; read-out: affinity constant (KD)
OBSERVABLE: Kd (nM)
One number for each entry, in nM.

Here's what some known entries look like.
BIOPOLYMER_SEQUENCE	TARGET_ENTITY	Kd [nM]
CLGGGLCL [P6.4, synthetic peptide CLGGGLCL derived from the COOH-terminal region of cysteine proteinase B of L. (L.) amazonensis]	H-2 L^d:Ig (DimerX) protein	9
VEQVICFD [P1.10, synthetic peptide VEQVICFD derived from the COOH-terminal region of cysteine proteinase B of L. (L.) amazonensis]	H-2 L^d:Ig (DimerX) protein	1
MVEQVICFD [P1.9, synthetic peptide … derived from the COOH-terminal region of cysteine proteinase B of L. (L.) amazonensis]	H-2 L^d:Ig (DimerX) protein	74

Task: Would you mind telling me what Kd value was observed for EFCLGGGLC [P6.5, synthetic peptide … derived from the COOH-terminal region of cysteine proteinase B of L. (L.) amazonensis] ?
Output: 0.7

----------
Record form. Attribute: RUs (subtractive dissociation response) 6th week. Fill in for each entry.
Tested on: lymph node cells (T lymphocytes) from L. (L.) amazonensis-infected BALB/c mice
Assay: SPR interaction of lymph node cells with immobilized DimerX/peptide complexes
Format: cell-based
Settings: RUd of cells from infected mice minus RUd of cells from noninfected mice; 10^4 cells in PBS; 6th week of infection
Give bare numbers, in RU.

BIOPOLYMER_SEQUENCE	ENDPOINT_UNIT	MEASURED_VALUE
VEQVICFD [P1.10, synthetic peptide VEQVICFD derived from the COOH-terminal region of cysteine proteinase B of L. (L.) amazonensis]	RU	123
EFCLGGGLC [P6.5, synthetic peptide … derived from the COOH-terminal region of cysteine proteinase B of L. (L.) amazonensis]	RU	109
MVEQVICFD [P1.9, synthetic peptide … derived from the COOH-terminal region of cysteine proteinase B of L. (L.) amazonensis]	RU	118

Task: Which measured RUs (subtractive dissociation response) 6th week belongs to CLGGGLCL [P6.4, synthetic peptide CLGGGLCL derived from the COOH-terminal region of cysteine proteinase B of L. (L.) amazonensis] , tested on lymph node cells (T lymphocytes) from L. (L.) amazonensis-infected BALB/c mice?
Output: 140
